- experimental-target: Protein-arginine deiminase type-3 (Homo sapiens)
- test-summary: PAD1-4 inhibition by competitive ABPP, late-stage follow-up, orthogonal assay for PAD4 inhibitor project, biochemical, fluorescence, gel-based ABPP, HTS hits (AID 588487)
- measurement-context: recombinant PAD1-4, gel-based ABPP, RFA probe fluorescence; PAD3; at 10 µM
The source made the active and inactive calls.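 Rule for the calls: active = inhibition of at least 50% against any of four protein arginine deiminase enzymes; inactive = the rest.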
Possible outcomes: active, inactive

[
  {
    "compound": "O=C(O)c1ccc(S(=O)(=O)c2ccc3c(c2)C(=O)N(c2ccc(O)cc2)C3=O)cc1",
    "answer-label": "inactive"
  },
  {
    "compound": "Cn1c(SCC(=O)Nc2ccc(Br)cn2)nnc1C1CC1",
    "answer-label": "inactive"
  },
  {
    "compound": "O=c1cc(-c2ccc(Br)cc2)[nH][nH]1",
    "answer-label": "inactive"
  },
  {
    "compound": "Cc1cc(-c2nnc(SCC(=O)Nc3ccc(F)c(F)c3)n2N)n[nH]1",
    "answer-label": "inactive"
  },
  {
    "compound": "Cc1nn(-c2ccccc2)c(C)c1NC(=O)COc1ccc(Cl)cc1Cl",
    "answer-label": "active"
  },
  {
    "compound": "COc1ccc(-c2nc(C(=O)NCCCN3CCOCC3)cc3c2[nH]c2ccccc23)cc1OC",
    "answer-label": "inactive"
  },
  {
    "compound": "COC(=O)c1cc(C)nc(Sc2ccccc2N)n1",
    "answer-label": "active"
  },
  {
    "compound": "COc1ccc(-c2cc(=O)n(CCC#N)[nH]2)cc1",
    "answer-label": "inactive"
  },
  {
    "compound": "O=C1CC(c2cccnc2)=NN1c1ccccc1",
    "answer-label": "inactive"
  },
  {
    "compound": "Cc1c(C(=O)N2CCCCC2)c(S(=O)(=O)N2CCN(c3ccc(Cl)cc3)CC2)c(C)n1C",
    "answer-label": "inactive"
  },
  {
    "compound": "COc1ccc(OC)c(C2C(C#N)=C(N)Oc3c2c(C)nn3-c2ccc(C)cc2)c1 (stereo not given)",
    "answer-label": "inactive"
  },
  {
    "compound": "S=C(NCc1ccco1)Nc1cccc(Cl)c1",
    "answer-label": "inactive"
  },
  {
    "compound": "COc1ccc(CCNC(=O)c2c[nH]c3ccc(F)cc3c2=O)cc1OC",
    "answer-label": "inactive"
  },
  {
    "compound": "CN(C)CCN(Cc1ccccc1)c1ccccn1",
    "answer-label": "inactive"
  },
  {
    "compound": "COc1ccc(CCNC(=O)COC(=O)c2ccc(C)s2)cc1",
    "answer-label": "inactive"
  }
]
